Biological target: T1, mTLR9-ECD, uncleaved (mouse, UniProt Q9EQU3 26-818)
T1 sequence: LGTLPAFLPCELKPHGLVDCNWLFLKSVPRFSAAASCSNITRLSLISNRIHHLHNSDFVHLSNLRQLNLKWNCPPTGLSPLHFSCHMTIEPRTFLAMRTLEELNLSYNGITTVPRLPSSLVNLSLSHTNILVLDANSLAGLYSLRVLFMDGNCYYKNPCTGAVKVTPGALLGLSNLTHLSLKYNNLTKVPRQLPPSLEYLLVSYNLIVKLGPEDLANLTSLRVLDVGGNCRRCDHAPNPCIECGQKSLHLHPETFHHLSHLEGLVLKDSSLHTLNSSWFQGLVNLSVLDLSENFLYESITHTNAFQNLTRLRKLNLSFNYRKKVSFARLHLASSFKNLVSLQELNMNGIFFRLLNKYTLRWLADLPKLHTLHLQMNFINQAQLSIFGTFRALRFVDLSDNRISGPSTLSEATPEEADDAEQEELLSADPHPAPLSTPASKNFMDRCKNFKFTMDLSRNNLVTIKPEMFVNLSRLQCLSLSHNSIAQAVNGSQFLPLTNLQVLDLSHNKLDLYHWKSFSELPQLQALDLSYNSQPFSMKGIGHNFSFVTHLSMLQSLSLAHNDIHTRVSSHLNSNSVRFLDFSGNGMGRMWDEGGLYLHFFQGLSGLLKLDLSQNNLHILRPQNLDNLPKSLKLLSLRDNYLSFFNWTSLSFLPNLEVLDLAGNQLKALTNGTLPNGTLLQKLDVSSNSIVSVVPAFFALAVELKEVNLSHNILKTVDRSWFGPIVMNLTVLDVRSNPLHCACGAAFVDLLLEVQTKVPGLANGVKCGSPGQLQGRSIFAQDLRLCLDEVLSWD
Assay: fluorescence anisotropy; 1:1 fit; uncleaved; Anisotropy: 2 or 5 nM Alexa 488 oligo, protein to 100 nM; competition in 10 mM MES pH 6.0, 0.15 M NaCl, room temperature (direct titration buffer not separately)

binder	unitSpec	Kd
TCCATGACGTTCCTGATGCT (ssDNA) [1668 (Alexa 488)]	nM	12
